MEASURED_TARGET: recombinant CETP (Homo sapiens)
TEST: RTA assay using recombinant CETP (2% RTA)
RUN_PARAMETERS: 2% human serum
pIC50: −log10 of the molar value.
Short version: pIC50 at least 6 is T, less is F.

>  <COMPOUND>
O[C@H](CN1CC(Cc2cccc(N3CCC(F)(F)C3)c2)(c2cccc(OC(F)(F)F)c2)c2ccccc21)C(F)(F)F (some centres unmarked) [Example 54]

>  <CLASSIFICATION>
T

$$$$
>  <COMPOUND>
O[C@H](CN1CC(Cc2cccc(N3CCC(F)(F)CC3)c2)(c2cccc(OC(F)(F)F)c2)c2ccccc21)C(F)(F)F (some centres unmarked) [Example 56]

>  <CLASSIFICATION>
T

$$$$
>  <COMPOUND>
COc1ccc(CC2(c3cccc(OC(F)(F)F)c3)CN(C[C@@H](O)C(F)(F)F)c3ccccc32)cc1 (some centres unmarked) [Example 5]

>  <CLASSIFICATION>
F

$$$$
>  <COMPOUND>
CCOc1cc(C2(Cc3cccc(OC(F)(F)F)c3)CN(C[C@@H](O)C(F)(F)F)c3ccccc32)ccn1 (some centres unmarked) [Example 21]

>  <CLASSIFICATION>
T

$$$$
>  <COMPOUND>
O[C@H](CN1CC(Cc2ccccc2)(c2cccc(OC(F)(F)F)c2)c2ccccc21)C(F)(F)F (some centres unmarked) [Example 2]

>  <CLASSIFICATION>
T

$$$$

====

MEASURED_TARGET: recombinant CETP (Homo sapiens)
TEST: RTA assay using recombinant CETP (2% RTA)
RUN_PARAMETERS: 2% human serum
pIC50: −log10 of the molar value.
Items are presented alongside their recorded pIC50.
OUTCOME_MEASURE: pIC50

>  <MOLECULE>
O=C(O)c1ccc(-c2cccc(C3(Cc4cccc(OC(F)(F)F)c4)CN(C[C@@H](O)C(F)(F)F)c4ccccc43)c2)cc1 (mixture of isomers) [Example 26]

>  <MEASURED_TARGET>
recombinant CETP (Homo sapiens)

>  <MEASURED_VALUE>
5.87

$$$$
>  <MOLECULE>
O[C@H](CN1CC(Cc2cccc(OC(F)(F)F)c2)(c2cccc(OC(F)(F)C(F)F)c2)c2ccccc21)C(F)(F)F (stereo partly drawn) [Example 8]

>  <MEASURED_TARGET>
recombinant CETP (Homo sapiens)

>  <MEASURED_VALUE>
7.60

$$$$
>  <MOLECULE>
O[C@H](CN1CC(Cc2cccc(OC(F)(F)F)c2)(c2cccc(OC(F)(F)F)c2)c2cccc(F)c21)C(F)(F)F (stereo partly drawn) [Example 12]

>  <MEASURED_TARGET>
recombinant CETP (Homo sapiens)

>  <MEASURED_VALUE>
7.17

$$$$

====

MEASURED_TARGET: recombinant CETP (Homo sapiens)
Sequence (P11597 18-493): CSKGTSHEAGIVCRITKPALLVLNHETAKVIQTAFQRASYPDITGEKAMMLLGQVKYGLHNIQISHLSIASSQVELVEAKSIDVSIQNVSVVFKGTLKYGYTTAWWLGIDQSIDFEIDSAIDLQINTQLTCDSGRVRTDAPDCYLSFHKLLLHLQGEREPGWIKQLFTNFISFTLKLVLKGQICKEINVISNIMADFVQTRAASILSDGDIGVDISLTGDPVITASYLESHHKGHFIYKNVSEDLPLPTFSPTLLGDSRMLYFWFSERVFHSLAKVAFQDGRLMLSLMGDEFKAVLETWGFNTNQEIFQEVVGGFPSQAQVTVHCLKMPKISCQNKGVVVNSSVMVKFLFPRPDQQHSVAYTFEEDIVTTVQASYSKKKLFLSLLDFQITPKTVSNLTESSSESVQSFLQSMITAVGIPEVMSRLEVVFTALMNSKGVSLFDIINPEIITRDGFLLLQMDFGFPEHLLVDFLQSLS
TEST: RTA assay using recombinant CETP (2% RTA)
Format: biochemical
RUN_PARAMETERS: 2% human serum
Lab note - cut at 300 nM for IC50: y if strictly below, n if not.

>  <MOLECULE>
Cc1cc(C(=O)O)ccc1-c1cc(C2(Cc3cccc(OC(F)(F)F)c3)CN(C[C@@H](O)C(F)(F)F)c3ccccc32)ccc1F (some centres unmarked)

>  <MEASURED_TARGET>
recombinant CETP (Homo sapiens)

>  <CLASSIFICATION>
n

$$$$
>  <MOLECULE>
O[C@H](CN1CC(Cc2cccc(N3CC[C@H](F)C3)c2)(c2cccc(OC(F)(F)F)c2)c2ccccc21)C(F)(F)F (some centres unmarked)

>  <MEASURED_TARGET>
recombinant CETP (Homo sapiens)

>  <CLASSIFICATION>
n

$$$$
>  <MOLECULE>
O[C@H](CN1CC(Cc2cccc(N3CC[C@@H](F)C3)c2)(c2cccc(OC(F)(F)F)c2)c2ccccc21)C(F)(F)F (some centres unmarked)

>  <MEASURED_TARGET>
recombinant CETP (Homo sapiens)

>  <CLASSIFICATION>
y

$$$$
>  <MOLECULE>
CO[C@H]1CCN(c2cccc(CC3(c4cccc(OC(F)(F)F)c4)CN(C[C@@H](O)C(F)(F)F)c4ccccc43)c2)C1 (some centres unmarked)

>  <MEASURED_TARGET>
recombinant CETP (Homo sapiens)

>  <CLASSIFICATION>
y

$$$$
>  <MOLECULE>
O[C@H](CN1CC(Cc2cccc(OC(F)(F)F)c2)(c2cc(F)cc(C(F)(F)F)c2)c2ccccc21)C(F)(F)F (some centres unmarked)

>  <MEASURED_TARGET>
recombinant CETP (Homo sapiens)

>  <CLASSIFICATION>
y

$$$$
>  <MOLECULE>
O[C@H](CN1CC(Cc2cccc(OC(F)(F)F)c2)(c2cccc(N3CC(F)C3)c2)c2ccccc21)C(F)(F)F (some centres unmarked)

>  <MEASURED_TARGET>
recombinant CETP (Homo sapiens)

>  <CLASSIFICATION>
y

$$$$
>  <MOLECULE>
C[C@H]1CN(c2cccc(C3(Cc4cccc(OC(F)(F)F)c4)CN(C[C@@H](O)C(F)(F)F)c4ccccc43)c2)CCO1 (some centres unmarked)

>  <MEASURED_TARGET>
recombinant CETP (Homo sapiens)

>  <CLASSIFICATION>
y

$$$$
>  <MOLECULE>
O[C@H](CN1CC(Cc2cccc(N3CC(F)(F)C3)c2)(c2cccc(OC(F)(F)F)c2)c2ccccc21)C(F)(F)F (some centres unmarked)

>  <MEASURED_TARGET>
recombinant CETP (Homo sapiens)

>  <CLASSIFICATION>
y

$$$$
>  <MOLECULE>
O[C@H](CN1CC(Cc2cccc(OC(F)(F)F)c2)(c2ccnc(N3CCOCC3)c2)c2ccccc21)C(F)(F)F (some centres unmarked)

>  <MEASURED_TARGET>
recombinant CETP (Homo sapiens)

>  <CLASSIFICATION>
y

$$$$
>  <MOLECULE>
OC1CCN(c2cccc(C3(Cc4cccc(OC(F)(F)F)c4)CN(C[C@@H](O)C(F)(F)F)c4ccccc43)c2)C1 (some centres unmarked)

>  <MEASURED_TARGET>
recombinant CETP (Homo sapiens)

>  <CLASSIFICATION>
n

$$$$
>  <MOLECULE>
Cc1cc(C(=O)O)ccc1-c1cccc(C2(Cc3cccc(OC(F)(F)F)c3)CN(C[C@@H](O)C(F)(F)F)c3ccccc32)c1 (some centres unmarked)

>  <MEASURED_TARGET>
recombinant CETP (Homo sapiens)

>  <CLASSIFICATION>
n

$$$$
>  <MOLECULE>
O[C@H](CN1CC(Cc2cccc(C(F)(F)F)c2)(c2cccc(OC(F)(F)F)c2)c2cccc(F)c21)C(F)(F)F (some centres unmarked)

>  <MEASURED_TARGET>
recombinant CETP (Homo sapiens)

>  <CLASSIFICATION>
y

$$$$
>  <MOLECULE>
O[C@H](CN1CC(Cc2cccc(OC(F)(F)F)c2)(c2ccnc(C(F)(F)F)c2)c2ccccc21)C(F)(F)F (some centres unmarked)

>  <MEASURED_TARGET>
recombinant CETP (Homo sapiens)

>  <CLASSIFICATION>
n

$$$$
>  <MOLECULE>
CS(=O)(=O)c1cccc(CC2(c3cccc(OC(F)(F)F)c3)CN(C[C@@H](O)C(F)(F)F)c3ccccc32)c1 (some centres unmarked)

>  <MEASURED_TARGET>
recombinant CETP (Homo sapiens)

>  <CLASSIFICATION>
y

$$$$
>  <MOLECULE>
Cc1cccc2c1N(C[C@@H](O)C(F)(F)F)CC2(Cc1cccc(OC(F)(F)F)c1)c1cccc(OC(F)(F)F)c1 (some centres unmarked)

>  <MEASURED_TARGET>
recombinant CETP (Homo sapiens)

>  <CLASSIFICATION>
y

$$$$
>  <MOLECULE>
Cc1ccc(C2(Cc3cccc(OC(F)(F)F)c3)CN(C[C@@H](O)C(F)(F)F)c3ccccc32)cc1Cl (some centres unmarked)

>  <MEASURED_TARGET>
recombinant CETP (Homo sapiens)

>  <CLASSIFICATION>
y

$$$$
>  <MOLECULE>
Cc1cc(C(=O)O)ccc1-c1cc(C2(Cc3cccc(OC(F)(F)F)c3)CN(C[C@@H](O)C(F)(F)F)c3ccccc32)ccc1C (some centres unmarked)

>  <MEASURED_TARGET>
recombinant CETP (Homo sapiens)

>  <CLASSIFICATION>
n

$$$$
>  <MOLECULE>
O[C@H](CN1CC(Cc2cccc(OC(F)(F)F)c2)(c2cccc(N3CC[C@H](F)C3)c2)c2ccccc21)C(F)(F)F (some centres unmarked)

>  <MEASURED_TARGET>
recombinant CETP (Homo sapiens)

>  <CLASSIFICATION>
y

$$$$
>  <MOLECULE>
CCOc1cc(C2(Cc3cccc(OC)c3)CN(C[C@@H](O)C(F)(F)F)c3ccccc32)ccn1 (some centres unmarked)

>  <MEASURED_TARGET>
recombinant CETP (Homo sapiens)

>  <CLASSIFICATION>
y

$$$$
>  <MOLECULE>
O[C@H](CN1CC(Cc2cccc(OC(F)(F)F)c2)(c2cccc(N3CC[C@@H](F)C3)c2)c2ccccc21)C(F)(F)F (some centres unmarked)

>  <MEASURED_TARGET>
recombinant CETP (Homo sapiens)

>  <CLASSIFICATION>
y

$$$$
>  <MOLECULE>
O[C@H](CN1CC(Cc2cccc(N3CCCC(F)(F)C3)c2)(c2cccc(OC(F)(F)F)c2)c2ccccc21)C(F)(F)F (some centres unmarked)

>  <MEASURED_TARGET>
recombinant CETP (Homo sapiens)

>  <CLASSIFICATION>
y

$$$$
>  <MOLECULE>
O[C@H](CN1CC(Cc2cccc(-c3cccc(OC(F)(F)F)c3)c2)(c2cccc(OC(F)(F)F)c2)c2ccccc21)C(F)(F)F (some centres unmarked)

>  <MEASURED_TARGET>
recombinant CETP (Homo sapiens)

>  <CLASSIFICATION>
n

$$$$
>  <MOLECULE>
O[C@H](CN1CC(Cc2cccc(OC(F)(F)F)c2)(c2cccc(C(F)(F)F)c2)c2ccccc21)C(F)(F)F (mixture of isomers)

>  <MEASURED_TARGET>
recombinant CETP (Homo sapiens)

>  <CLASSIFICATION>
y

$$$$
>  <MOLECULE>
O[C@H](CN1CC(Cc2cccc(OC(F)(F)F)c2)(c2cccc(N3CCOCC3)c2)c2ccccc21)C(F)(F)F (mixture of isomers)

>  <MEASURED_TARGET>
recombinant CETP (Homo sapiens)

>  <CLASSIFICATION>
y

$$$$
>  <MOLECULE>
CC1(O)CN(c2cccc(CC3(c4cccc(OC(F)(F)F)c4)CN(C[C@@H](O)C(F)(F)F)c4ccccc43)c2)C1 (some centres unmarked)

>  <MEASURED_TARGET>
recombinant CETP (Homo sapiens)

>  <CLASSIFICATION>
n

$$$$
